experimentalDetails: TROY pathway blockers in reporter cells – Q293 LMP1-TROYcd cells, NF-kB luciferase, uHTS, primary screen (AID 1347056)
settings: 4 h, at 10 µM, stronger effect = higher value
Hit rate of the full screen: of about 360,000 compounds, about 3,600 (1%) were called active. The sample holds actives, similar compounds and a random draw of the others, so the mix is not that of the screen.

{"columns": ["molecule", "u", "inhibition"],
 "data": [
  ["O=C(Cn1cnc2ccccc2c1=O)NCC1COc2ccccc2O1 (configuration not stated)", "%", -4.41],
  ["COc1ccc(-c2cc3c(c4c2ccn4C)C2CCC3C2)cn1 (configuration not stated)", "%", 8.35],
  ["COc1cccc(C(=O)N2CCC(n3nccc3NC(=O)C3CCOC3)CC2)c1 (configuration not stated)", "%", -1.36],
  ["CCOc1ccc(C(=O)Nc2cc(Cl)ccc2-n2cncn2)cc1OC", "%", -3.58],
  ["CC(C)c1ccc(NS(=O)(=O)c2cn(C)c(=O)n(C)c2=O)cc1", "%", -2.58],
  ["Cc1cccc(OC(C)C(=O)N2CCc3ccccc3C2)c1 (configuration not stated)", "%", -6.07],
  ["CN1CCN(c2ccncc2S(=O)(=O)N2CCCC2)CC1", "%", -13.2]
]}

These data points were gathered from PubChem BioAssay AID1347056.
